experiment: Cmax in rat at 5 mg/kg, po; type: ADME, organism-based; design: dose 5 mg/kg, route oral; details: in vivo
result type: Cmax (µM)

[I] CCOc1cc(NC(=O)C2(NC(=O)c3ccc4c(C5CCCC5)c(-c5ncc(Cl)cn5)n(C)c4c3)CCC2)ncc1/C=C/C(=O)O
[II] CCOc1nc(NC(=O)C2(NC(=O)c3ccc4c(C5CCCC5)c(-c5ncc(Cl)cn5)n(C)c4c3)CCC2)ccc1/C=C/C(=O)O
Prompt: // select label with min value of measured Cmax from [ I , II ] Refer to your chosen entry by its label in the reply.
Response: I
(I: 1.8 µM, II: 5.9 µM)

----------
assay: Half life in human liver microsomes at 2 uM; type: ADME
result type: half-life at 2 µM (min)

Some compounds with known half-life at 2 µM results, for comparison:
| mol | reading |
| --- | --- |
| CCOc1cc(NC(=O)C2(NC(=O)c3ccc4c(C5CCCC5)c(-c5ncc(Cl)cn5)n(C)c4c3)CCC2)cnc1/C=C/C(=O)O | 275 |
| CCOc1cc(NC(=O)C2(NC(=O)c3ccc4c(C5CCCC5)c(-c5ncc(Cl)cn5)n(C)c4c3)CCC2)ncc1/C=C/C(=O)O | 145 |
| CCOc1nc(NC(=O)C2(NC(=O)c3ccc4c(C5CCCC5)c(-c5ncc(Cl)cn5)n(C)c4c3)CCC2)cnc1/C=C/C(=O)O | 146 |

[A] CCOc1nc(NC(=O)C2(NC(=O)c3ccc4c(C5CCCC5)c(-c5ncc(Cl)cn5)n(C)c4c3)CCC2)ncc1/C=C/C(=O)O
[B] CCOc1cc(NC(=O)C2(NC(=O)c3ccc4c(C5CCCC5)c(-c5ncc(Cl)cn5)n(C)c4c3)CCC2)nnc1/C=C/C(=O)O
Prompt: Which shows the larger half-life at 2 µM value: A or B ? Refer to your chosen entry by its label in the reply.
Response: A
(A: 239 min, B: 136 min)

----------
test: Half life in rat at 5 mg/kg, po and 2 mg/kg, iv; type: ADME, organism-based; conditions: in vivo
result type: half-life (h)
# value in h; strip the unit string

Prompt: Please report the recorded half-life for "CCOc1nc(NC(=O)C2(NC(=O)c3ccc4c(C5CCCC5)c(-c5ncc(Cl)cn5)n(C)c4c3)CCC2)ccc1/C=C/C(=O)O" .
Response: 1.5

----------
assay: Permeability from apical to basolateral side of human Caco2 cells; format: ADME, cell-based; conditions: Caco-2, read-out: permeability
result type: Papp A→B (×10⁻⁶ cm/s)

| mol | reading unit | Papp A→B |
| --- | --- | --- |
| CCOc1cc(NC(=O)C2(NC(=O)c3ccc4c(C5CCCC5)c(-c5ncc(Cl)cn5)n(C)c4c3)CCC2)cnc1/C=C/C(=O)O | ×10⁻⁶ cm/s | 7.5 |
| CCOc1nc(NC(=O)C2(NC(=O)c3ccc4c(C5CCCC5)c(-c5ncc(Cl)cn5)n(C)c4c3)CCC2)cnc1/C=C/C(=O)O | ×10⁻⁶ cm/s | 13 |
| CCOc1cc(NC(=O)C2(NC(=O)c3ccc4c(C5CCCC5)c(-c5ncc(Cl)cn5)n(C)c4c3)CCC2)ncc1/C=C/C(=O)O | ×10⁻⁶ cm/s | 15 |

[a] CCOc1nc(NC(=O)C2(NC(=O)c3ccc4c(C5CCCC5)c(-c5ncc(Cl)cn5)n(C)c4c3)CCC2)ncc1/C=C/C(=O)O
[b] CCOc1cc(NC(=O)C2(NC(=O)c3ccc4c(C5CCCC5)c(-c5ncc(Cl)cn5)n(C)c4c3)CCC2)nnc1/C=C/C(=O)O
Prompt: // select label with min value of measured Papp A→B from [ a , b ] Refer to your chosen entry by its label in the reply.
Response: b
(b: 1.6 ×10⁻⁶ cm/s, a: 4.3 ×10⁻⁶ cm/s)

----------
assay: Ratio of drug up take in liver to plasma of rat at 5 mg/kg, po measured at 6 hrs post dose; format: ADME, organism-based; set-up: dose 5 mg/kg, route oral
result type: Kp at 6 h
Form rule: numeric answer, no unit written next to it.

Prompt: Please report the recorded Kp at 6 h for "CCOc1cc(NC(=O)C2(NC(=O)c3ccc4c(C5CCCC5)c(-c5ncc(Cl)cn5)n(C)c4c3)CCC2)ccc1/C=C/C(=O)O" .
Response: 5.5

----------
experiment: Permeability coefficient, Kp for ratio of drug uptake in liver to plasma in rat; format: ADME
result type: Kp

[1] CCOc1nc(NC(=O)C2(NC(=O)c3ccc4c(C5CCCC5)c(-c5ncc(Cl)cn5)n(C)c4c3)CCC2)ccc1/C=C/C(=O)O
[2] CCOc1cc(NC(=O)C2(NC(=O)c3ccc4c(C5CCCC5)c(-c5ncc(Cl)cn5)n(C)c4c3)CCC2)ccc1/C=C/C(=O)O
Prompt: Which shows the larger Kp value: 1 or 2 ? Refer to your chosen entry by its label in the reply.
Response: 2

----------
tested on: Macaca mulatta; experiment: Cmax in rhesus monkey at 5 mg/kg, po and 2 mg/kg, iv; settings: in vivo
result type: Cmax (nM)
# value in nM; strip the unit string

Prompt: Give recorded Cmax with Macaca mulatta for the following compound: "CCOc1nc(NC(=O)C2(NC(=O)c3ccc4c(C5CCCC5)c(-c5ncc(Cl)cn5)n(C)c4c3)CCC2)ccc1/C=C/C(=O)O"
Response: 2600

----------
experiment: Cmax in dog at 5 mg/kg, po and 2 mg/kg, iv; format: ADME, organism-based, Canis lupus familiaris; settings: in vivo
result type: Cmax (µM)

[I] CCOc1cc(NC(=O)C2(NC(=O)c3ccc4c(C5CCCC5)c(-c5ncc(Cl)cn5)n(C)c4c3)CCC2)ccc1/C=C/C(=O)O
[II] CCOc1nc(NC(=O)C2(NC(=O)c3ccc4c(C5CCCC5)c(-c5ncc(Cl)cn5)n(C)c4c3)CCC2)ccc1/C=C/C(=O)O
Prompt: Which shows the larger Cmax value: I or II ? Refer to your chosen entry by its label in the reply.
Response: II
(II: 10 µM, I: 4.1 µM)

----------
test: AUC in dog at 5 mg/kg, po and 2 mg/kg, iv; assay type: ADME, organism-based, Canis lupus familiaris; settings: plasma
result type: AUC (µM·h)

[P] CCOc1cc(NC(=O)C2(NC(=O)c3ccc4c(C5CCCC5)c(-c5ncc(Cl)cn5)n(C)c4c3)CCC2)ccc1/C=C/C(=O)O
[Q] CCOc1nc(NC(=O)C2(NC(=O)c3ccc4c(C5CCCC5)c(-c5ncc(Cl)cn5)n(C)c4c3)CCC2)ccc1/C=C/C(=O)O
Prompt: Which shows the larger AUC value: P or Q ? Refer to your chosen entry by its label in the reply.
Response: Q

----------
experiment: Half life in cynomolgous monkey liver microsomes at 2 uM; type: ADME, Macaca fascicularis; conditions: cynomolgus monkey
result type: half-life at 2 µM (h)
# value in h; strip the unit string

Prompt: Please report the recorded half-life at 2 µM for "CCOc1cc(NC(=O)C2(NC(=O)c3ccc4c(C5CCCC5)c(-c5ncc(Cl)cn5)n(C)c4c3)CCC2)ccc1/C=C/C(=O)O" .
Response: 1.6

----------
experiment: Clearance in rat at 2 mg/kg, iv; type: ADME, organism-based; design: dose 2 mg/kg, route intravenous; conditions: in vivo
result type: clearance (mL/min/kg)
# value in mL/min/kg; strip the unit string

Prompt: Please report the recorded clearance for "CCOc1nc(NC(=O)C2(NC(=O)c3ccc4c(C5CCCC5)c(-c5ncc(Cl)cn5)n(C)c4c3)CCC2)ccc1/C=C/C(=O)O" .
Response: 3.1

----------
test system: Macaca mulatta; test: Volume of distribution at steady state in rhesus monkey at 5 mg/kg, po and 2 mg/kg, iv; conditions: in vivo, read-out: Vdss
result type: Vd (L/kg)
# value in L/kg; strip the unit string

Prompt: Give recorded Vd with Macaca mulatta for the following compound: "CCOc1nc(NC(=O)C2(NC(=O)c3ccc4c(C5CCCC5)c(-c5ncc(Cl)cn5)n(C)c4c3)CCC2)ccc1/C=C/C(=O)O"
Response: 0.06

----------
assay: Half life in dog liver microsomes at 2 uM; format: ADME, Canis lupus familiaris
result type: half-life at 2 µM (h)

| mol | reading unit | half-life at 2 µM |
| --- | --- | --- |
| CCOc1cc(NC(=O)C2(NC(=O)c3ccc4c(C5CCCC5)c(-c5ncc(Cl)cn5)n(C)c4c3)CCC2)ccc1/C=C/C(=O)O | h | 2.92 |
| CCOc1nc(NC(=O)C2(NC(=O)c3ccc4c(C5CCCC5)c(-c5ncc(Cl)cn5)n(C)c4c3)CCC2)ccc1/C=C/C(=O)O | h | 3.65 |

----------
assay: Ratio of drug up take in liver to plasma of rat at 4 mg/kg, po as cassette dosing measured at 2 hrs post dose; type: ADME, organism-based; parameters: dose 4 mg/kg, route oral
result type: Kp at 2 h

| mol | Kp at 2 h |
| --- | --- |
| CCOc1cc(NC(=O)C2(NC(=O)c3ccc4c(C5CCCC5)c(-c5ncc(Cl)cn5)n(C)c4c3)CCC2)cnc1/C=C/C(=O)O | 5 |
| CCOc1nc(NC(=O)C2(NC(=O)c3ccc4c(C5CCCC5)c(-c5ncc(Cl)cn5)n(C)c4c3)CCC2)cnc1/C=C/C(=O)O | 5 |
